Data origin, for the record: patent US9018203B2

System: RAW 264.7 cells
Experiment: MTT cell viability assay in RAW 264.7 cells
Format: cell-based, murine
Details: 10 μM compound, 24 hr
I'd appreciate it if you could supply Cell viability: Survival rate at 10 μM (%) values for the items below.
State the answer as a number, implicitly in %.

Fill in the blank: the reported Cell viability: Survival rate at 10 μM (%) of `O=c1oc2ccccc2c(=O)n1-c1ccc(Cl)cc1F` is ____. 97.9

Another molecule to check: `COc1ccc(C(=O)Nc2ccc(Cl)cc2F)c(OCc2ccc(F)cc2F)c1` 107.3

Would you mind doing `COc1ccc(C(=O)Nc2ccc(Cl)cc2F)c(OC)c1` as well? 52.9

Note, next up: `COc1ccccc1C(=O)Nc1ccc(Cl)cc1F` 101.8

Try this molecule too: `COc1ccc2c(=O)n(-c3ccc(Cl)cc3F)c(=O)oc2c1` 100.5

# repeat for `O=C(Nc1ccc(F)cc1F)c1ccccc1OCc1ccc(F)cc1F` 101.1

One more molecule: `COc1ccccc1C(=O)Nc1ccc(F)cc1F` 108.5

Ok, now COc1ccc(C(=O)O)c(O)c1 [2-hydroxy-4-methoxy-benzoic acid, reference compound] 99.4

Next record, please: `COc1ccc(C(=O)Nc2ccc(F)cc2F)c(OC)c1` 102.5

Another molecule to check: `COc1ccc(C(=O)Nc2ccc(F)cc2F)c(OCc2ccc(F)cc2F)c1` 106.0

Would you kindly repeat that for `COc1ccc(C(=O)Nc2ccc(Cl)cc2F)c(O)c1` ? 103.0

Proceed to `O=C(Nc1ccc(Cl)cc1F)c1ccccc1OCc1ccc(F)cc1F` 107.2

* * *

Assay: MTT cell viability assay in RAW 264.7 cells
Format: cell-based, murine
Details: mouse, 10 μM compound, read-out: Cell viability: Survival rate at 10 μM (%)
Quantity Name: viability at 24 hr, 10 µM (%)
Form entry: value (%) — number only.

Consider the compound `O=c1oc2ccccc2c(=O)n1-c1ccc(F)cc1F` and give its measured viability at 24 hr, 10 µM. 105

Would you kindly repeat that for `COc1ccc(C(=O)Nc2ccc(F)cc2F)c(O)c1` ? 105

Repeat for the following compound: `COc1ccc2c(=O)n(-c3ccc(F)cc3F)c(=O)oc2c1` 102

Item: `O=C(Nc1ccc(Cl)cc1F)c1ccccc1O` 93

Also, `O=C(Nc1ccc(F)cc1F)c1ccccc1O` please. 104

* * *

Assay: MTT cell viability assay in RAW 264.7 cells
Assay type: cell-based, murine
Conditions: mouse, read-out: Cell viability: CC50 (cytotoxic concentration that produces 50% cell survival)
For each of the molecules below, state its CC50 at 24 hr.

Tell me the measured CC50 at 24 hr of `O=C(Nc1ccc(Cl)cc1F)c1ccccc1OCc1ccc(F)cc1F` , please. > 40 µM

Note, next up: `COc1ccc(C(=O)Nc2ccc(F)cc2F)c(OC)c1` > 40 µM

Next entry: `COc1ccc2c(=O)n(-c3ccc(F)cc3F)c(=O)oc2c1` > 40 µM

Now give it for `COc1ccccc1C(=O)Nc1ccc(F)cc1F` too. > 40 µM

Another molecule: O=C(O)c1ccccc1O [Salicylic acid, reference compound] > 40 µM

* * *

Test system: RAW 264.7 cells
Assay: TRAP staining and activity assay of RANKL-induced osteoclastogenesis
Assay type: cell-based, murine
Settings: 100 ng/mL RANKL, 5 days, 10 μM compound, relative to RANKL without drug
Returns T if the recorded Osteoclastogenesis: TRAP+ MNCS at 10 μM (%) is greater than or equal to 80%, and F otherwise.

Confirm if Osteoclastogenesis: TRAP+ MNCS at 10 μM (%) reported for the compound COc1ccc(C(=O)Nc2ccc(F)cc2F)c(OC)c1 [compound 4b] is 80% or above. T

Now consider COc1ccccc1C(=O)Nc1ccc(F)cc1F [compound 3b] . T

And what about the compound O=c1oc2ccccc2c(=O)n1-c1ccc(F)cc1F [compound 3d] ? F

Would you kindly repeat that for COc1ccc(C(=O)Nc2ccc(F)cc2F)c(O)c1 [compound 4a] ? F

Another compound: O=C(Nc1ccc(F)cc1F)c1ccccc1O [compound 3a] T

Queued: O=C(Nc1ccc(F)cc1F)c1ccccc1OCc1ccc(F)cc1F [compound 3c] T

Input COc1ccc(C(=O)Nc2ccc(Cl)cc2F)c(O)c1 [compound 2a] F

How about COc1ccc(C(=O)Nc2ccc(F)cc2F)c(OCc2ccc(F)cc2F)c1 [compound 4c] ? F

COc1ccc2c(=O)n(-c3ccc(Cl)cc3F)c(=O)oc2c1 [compound 2d] ? F

// next record COc1ccc(C(=O)Nc2ccc(Cl)cc2F)c(OCc2ccc(F)cc2F)c1 [compound 2c] F

Proceed to COc1ccccc1C(=O)Nc1ccc(Cl)cc1F [compound 1b] T

Repeat for the following compound: O=c1oc2ccccc2c(=O)n1-c1ccc(Cl)cc1F [compound 1d] F

Please answer likewise for COc1ccc(C(=O)Nc2ccc(Cl)cc2F)c(OC)c1 [compound 2b] F

Cool, now O=C(Nc1ccc(Cl)cc1F)c1ccccc1OCc1ccc(F)cc1F [compound 1c] F

Then COc1ccc2c(=O)n(-c3ccc(F)cc3F)c(=O)oc2c1 [compound 4d] ? T

Follow-up entry: O=C(Nc1ccc(Cl)cc1F)c1ccccc1O [compound 1a] F
